# experimental.target: UniProt P51531
# test.details: MSD SMARCA2 degradation in NCI-H1299 cell line (24 h)
# Assay type: cell-based
# Parameters: HC: NCI-H1299 cells treated with DMSO; host or cells: NCI-H1299
# condition.context: NCI-H1299 cells, read-out: SMARCA2 MSD H1299 degradation 24 h: External Abs-DC50
# Description: Example 32. MSD SMARCA2 Degradation in […] Cell Line Cell Culture: Cells were cultured in exponential growth phase. Compound Preparation and Treatment: NCI-H1299 cells were seeded into the 96-well plate at 4.0*10^4 cells per 100 ul per well. […] MSD Procedure: The MSD plate was coated with 40 ul cell lysate and incubated at 4° C. overnight. […] MSD plate was washed 3 times with 150 ul 1×TBST per well and 2×MSD reading buffer was added, 150 ul per well, and diluted from 4× with water. […]
measured.endpoint: DC50

Known results for molecules:
Cn1c(=O)n(C2CCC(=O)NC2=O)c2cccc(C#CCN3CCCC(c4cnc(N5C6CCC5CN(c5cc(-c7ccccc7O)nnc5N)C6)nc4)C3)c21 (stereo not drawn) [I-300]
< 0.1 µM
CN[C@@H](C)C(=O)N[C@H](C(=O)N1Cc2cc(OCCOCCOCCOCCOCCOCCNC(=O)c3ccc(C(C)n4cc(-c5cc(-c6ccccc6O)nnc5N)cn4)cc3)ccc2C[C@H]1C(=O)N[C@@H]1CCCc2ccccc21)C(C)(C)C (stereo partly drawn) [I-206]
> 1 µM

Proceed to the following item.
Supply DC50 value. Item: Cn1c(=O)n(C2CCC(=O)NC2=O)c2cccc(CCCCCCc3cn(Cc4cccc(N5C[C@H]6C[C@@H]5CN6/C=C/C(=O)c5ccccc5O)n4)nn3)c21 (stereo partly drawn) [I-51]
> 1 µM

---

In this section, each of the compounds is paired with its reported DC50.
# experimental.target: SMARCA2 (Homo sapiens, UniProt P51531)
# Sequence (P51531 whole entry): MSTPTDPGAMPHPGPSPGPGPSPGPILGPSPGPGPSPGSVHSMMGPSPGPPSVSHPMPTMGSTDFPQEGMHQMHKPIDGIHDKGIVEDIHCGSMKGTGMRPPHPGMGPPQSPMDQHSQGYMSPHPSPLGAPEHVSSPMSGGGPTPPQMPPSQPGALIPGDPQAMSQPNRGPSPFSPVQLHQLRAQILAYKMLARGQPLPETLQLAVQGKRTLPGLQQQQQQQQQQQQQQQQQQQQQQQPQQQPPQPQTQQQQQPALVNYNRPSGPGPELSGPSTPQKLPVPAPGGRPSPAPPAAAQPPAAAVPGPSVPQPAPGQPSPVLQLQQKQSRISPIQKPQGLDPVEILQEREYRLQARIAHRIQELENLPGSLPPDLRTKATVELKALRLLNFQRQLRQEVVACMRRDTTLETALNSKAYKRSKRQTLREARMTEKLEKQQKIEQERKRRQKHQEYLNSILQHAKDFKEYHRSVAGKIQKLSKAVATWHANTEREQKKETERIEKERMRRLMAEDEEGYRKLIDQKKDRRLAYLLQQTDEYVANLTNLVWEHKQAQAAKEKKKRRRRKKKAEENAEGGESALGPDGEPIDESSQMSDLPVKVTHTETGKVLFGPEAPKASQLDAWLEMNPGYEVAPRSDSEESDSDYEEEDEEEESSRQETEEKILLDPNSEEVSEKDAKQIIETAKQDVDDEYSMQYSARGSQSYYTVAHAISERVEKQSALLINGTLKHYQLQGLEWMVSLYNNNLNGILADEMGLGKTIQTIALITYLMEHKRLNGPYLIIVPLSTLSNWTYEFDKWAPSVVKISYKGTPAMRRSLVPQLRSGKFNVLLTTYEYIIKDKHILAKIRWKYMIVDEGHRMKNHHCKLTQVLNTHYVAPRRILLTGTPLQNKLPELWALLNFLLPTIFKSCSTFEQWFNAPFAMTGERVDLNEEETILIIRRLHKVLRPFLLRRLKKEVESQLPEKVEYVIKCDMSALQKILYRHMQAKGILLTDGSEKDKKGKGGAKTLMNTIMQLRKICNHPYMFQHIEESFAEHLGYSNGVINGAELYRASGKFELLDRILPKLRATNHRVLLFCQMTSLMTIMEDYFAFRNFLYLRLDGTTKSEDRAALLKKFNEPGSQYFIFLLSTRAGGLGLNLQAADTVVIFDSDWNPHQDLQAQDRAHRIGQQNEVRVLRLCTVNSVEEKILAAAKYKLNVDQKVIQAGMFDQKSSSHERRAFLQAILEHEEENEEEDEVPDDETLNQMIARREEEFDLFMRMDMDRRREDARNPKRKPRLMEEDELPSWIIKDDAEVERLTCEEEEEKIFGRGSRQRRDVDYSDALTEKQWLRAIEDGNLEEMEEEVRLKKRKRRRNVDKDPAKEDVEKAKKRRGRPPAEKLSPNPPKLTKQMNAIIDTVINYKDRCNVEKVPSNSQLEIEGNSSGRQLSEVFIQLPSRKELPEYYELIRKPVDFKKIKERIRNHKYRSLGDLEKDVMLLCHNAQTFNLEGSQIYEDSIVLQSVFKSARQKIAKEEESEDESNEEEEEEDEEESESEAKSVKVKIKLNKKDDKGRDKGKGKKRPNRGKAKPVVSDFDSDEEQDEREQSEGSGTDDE
# test.details: MSD SMARCA2 degradation in A549 cell line
# Assay type: cell-based
# condition.context: A549 cells, 24 h, read-out: SMARCA2 MSD A549 degradation 24 h: Average external-Abs DC50

Cc1ncsc1-c1ccc(CNC(=O)[C@@H]2C[C@@H](O)CN2C(=O)[C@@H](NC(=O)Cc2ccc(-c3cnc(N4C5CCC4CN(c4cc(-c6ccccc6O)nnc4N)C5)nc3)cc2)C(C)(C)C)cc1 [I-335]
< 100 nM
Cc1ncsc1-c1ccc(CNC(=O)[C@@H]2C[C@@H](O)CN2C(=O)[C@@H](NC(=O)[C@H]2CC[C@H](c3ccc(CN4CCC(Cn5cc(-c6cc(-c7ccccc7O)nnc6N)cn5)CC4)cc3)CC2)C(C)(C)C)cc1 [I-380]
100 to 500 nM

Supply DC50 value. Item: Cc1ncsc1-c1ccc(CNC(=O)[C@@H]2C[C@@H](O)CN2C(=O)[C@@H](NC(=O)[C@H]2C[C@H](CN3CCC(c4cnc(N5C6CCC5CN(c5cc(-c7ccccc7O)nnc5N)C6)nc4)CC3)C2)C(C)(C)C)cc1 [I-376]
501 to 1000 nM

---

# experimental.target: SMARCA2 (Homo sapiens, UniProt P51531)
# test.details: MSD SMARCA2 degradation in NCI-H1299 cell line (24 h)
# Format: cell-based
# Set-up: HC: NCI-H1299 cells treated with DMSO; host or cells: NCI-H1299
# condition.context: NCI-H1299 cells, read-out: SMARCA2 MSD H1299 degradation 24 h: External Abs-DC50
measured.endpoint: DC50

Supply DC50 value. Item: Cc1ncsc1-c1ccc(CNC(=O)[C@@H]2C[C@@H](O)CN2C(=O)[C@@H](NC(=O)N2CCC(c3cnc(N4C5CCC4CN(c4cc(-c6ccccc6O)nnc4N)C5)nc3)CC2)C(C)(C)C)cc1 [I-448]
100 to 500 nM

Supply DC50 value. Item: Cn1c(=O)n(C2CCC(=O)NC2=O)c2cccc(CCCOCCN3CCN(Cc4ccc(-c5cc(-c6ccccc6O)nnc5N)cc4)CC3)c21 (stereo not drawn) [I-106]
100 to 500 nM

Supply DC50 value. Item: Cn1c(=O)n(C2CCC(=O)NC2=O)c2cccc(CCCCOc3cccc(CN4CCN(c5cc(-c6ccccc6O)nnc5N)CC4)c3)c21 (stereo not drawn) [I-96]
100 to 500 nM

Supply DC50 value. Item: NCC#Cc1cnc(N2C3CCC2CN(c2cc(-c4ccccc4O)nnc2N)C3)nc1 [I-535]
> 1000 nM

Supply DC50 value. Item: Cn1c(=O)n(C2CCC(=O)NC2=O)c2ccc(CCCCOc3cccc(CN4CCN(c5cc(-c6ccccc6O)nnc5N)CC4)c3)cc21 (stereo not drawn) [I-101]
> 1000 nM

Supply DC50 value. Item: Cn1c(=O)n(C2CCC(=O)NC2=O)c2ccc(CCCOCCOc3cccc(N4C[C@H]5C[C@@H]4CN5/C=C/C(=O)c4ccccc4O)n3)cc21 (stereo partly drawn) [I-31]
> 1000 nM

---

# experimental.target: SMARCA2 (Homo sapiens)
# test.details: MSD SMARCA2 degradation in A549 cell line
# Assay type: cell-based
# condition.context: A549 cells, 24 h, read-out: SMARCA2 MSD A549 degradation 24 h: Average external-Abs DC50
measured.endpoint: DC50

Nc1nnc(-c2ccccc2O)cc1N1CC2CCC(C1)N2c1ncc(C2CCN(CCCNC(=O)COc3ccc4c(c3)CCCN4C(=O)CCl)CC2)cn1
> 1000 nM

Supply DC50 value. Item: Cc1ncsc1-c1ccc(CNC(=O)[C@@H]2C[C@@H](O)CN2C(=O)C(NC(=O)C2(F)CC2)C2CCC(N(C)CCCCCCCc3cnc(N4C5CCC4CN(c4cc(-c6ccccc6O)nnc4N)C5)nc3)CC2)cc1 (some centres unmarked)
> 1000 nM

Supply DC50 value. Item: Cc1ncsc1-c1ccc(CNC(=O)[C@@H]2C[C@@H](O)CN2C(=O)[C@@H](NC(=O)C[C@H]2CC[C@H](c3cnc(N4C5CCC4CN(c4cc(-c6ccccc6O)nnc4N)C5)nc3)CC2)C(C)(C)C)cc1
< 100 nM

Supply DC50 value. Item: Cc1ncsc1-c1ccc(CNC(=O)[C@@H]2C[C@@H](O)CN2C(=O)[C@@H](NC(=O)[C@H]2CC[C@H](c3cnc(N4C5CCC4CN(c4cc(-c6ccccc6O)nnc4N)C5)nc3)CC2)C(C)(C)C)cc1
< 100 nM

Supply DC50 value. Item: Cc1ncsc1-c1ccc(CNC(=O)[C@@H]2C[C@@H](O)CN2C(=O)[C@@H](NC(=O)CCCN2CCC(c3ccc(C#Cc4cc(NC(=O)Nc5cc(F)ncc5CO)ccn4)cc3)CC2)C(C)(C)C)cc1
> 1000 nM

---

In this section, each of the compounds is paired with its reported Dmax.
# experimental.target: SMARCA2 (Homo sapiens, UniProt P51531)
# test.details: MSD SMARCA2 degradation in A549 cell line
# Type: cell-based
# condition.context: A549, A549 cells, 24 h

Cc1ncsc1-c1ccc(CNC(=O)[C@@H]2C[C@@H](O)CN2C(=O)[C@@H](NC(=O)C2CC3(C2)CC(N2CCC(c4cnc(N5C6CCC5CN(c5cc(-c7ccccc7O)nnc5N)C6)nc4)CC2)C3)C(C)(C)C)cc1 (some centres unmarked)
> 90%
Cc1ncsc1-c1ccc(CNC(=O)[C@@H]2C[C@@H](O)CN2C(=O)[C@@H](NC(=O)[C@H]2CC3(C[C@H](CN4CCC(c5cnc(N6C7CCC6CN(c6cc(-c8ccccc8O)nnc6N)C7)nc5)CC4)C3)C2)C(C)(C)C)cc1 (some centres unmarked)
> 90%
Cn1c(=O)n(C2CCC(=O)NC2=O)c2ccc([C@H]3CC[C@H](N4CCC(c5nccc(N6C7CCC6CN(c6cc(-c8ccccc8O)nnc6N)C7)n5)CC4)CC3)cc21 (some centres unmarked)
> 90%

Supply Dmax value. Item: Cn1c(=O)n(C2CCC(=O)NC2=O)c2cccc(CN3CCC(OC4CCN(Cc5cccc(C#Cc6cc(NC(=O)Nc7cc(F)ncc7CO)ccn6)c5)CC4)CC3)c21 (centres unmarked)
< 50%

Supply Dmax value. Item: Nc1nnc(-c2ccccc2O)cc1N1CC2CCC(C1)N2c1ncc(C2CCN(CCCNC(=O)COc3ccc4c(c3)CCCN4C(=O)CCl)CC2)cn1
< 50%

---

# experimental.target: SMARCA2 (Homo sapiens, UniProt P51531)
# test.details: MSD SMARCA2 degradation in A549 cell line
# Assay type: cell-based
# condition.context: A549, A549 cells, 24 h
In this section, each of the compounds is paired with its reported Dmax.

Supply Dmax value. Item: Nc1nnc(-c2ccccc2O)cc1N1CC2CCC(C1)N2c1ncc(C2CCN(CCCCOc3ccc(Oc4ccc(N(Cc5ccccc5)C(=O)CCl)cc4)cc3)CC2)cn1
< 50%

Supply Dmax value. Item: Cc1ncsc1-c1ccc(CNC(=O)[C@@H]2C[C@@H](O)CN2C(=O)[C@@H](NC(=O)[C@H]2CC[C@H](c3cnc(N4C5CCC4CN(c4cc(-c6ccccc6O)nnc4N)C5)nc3)CC2)C(C)(C)C)c(OC(F)(F)F)c1
> 90%
